Biological target: PI3Kα (Homo sapiens (Human), UniProt P42336)
Sequence (P42336 whole entry): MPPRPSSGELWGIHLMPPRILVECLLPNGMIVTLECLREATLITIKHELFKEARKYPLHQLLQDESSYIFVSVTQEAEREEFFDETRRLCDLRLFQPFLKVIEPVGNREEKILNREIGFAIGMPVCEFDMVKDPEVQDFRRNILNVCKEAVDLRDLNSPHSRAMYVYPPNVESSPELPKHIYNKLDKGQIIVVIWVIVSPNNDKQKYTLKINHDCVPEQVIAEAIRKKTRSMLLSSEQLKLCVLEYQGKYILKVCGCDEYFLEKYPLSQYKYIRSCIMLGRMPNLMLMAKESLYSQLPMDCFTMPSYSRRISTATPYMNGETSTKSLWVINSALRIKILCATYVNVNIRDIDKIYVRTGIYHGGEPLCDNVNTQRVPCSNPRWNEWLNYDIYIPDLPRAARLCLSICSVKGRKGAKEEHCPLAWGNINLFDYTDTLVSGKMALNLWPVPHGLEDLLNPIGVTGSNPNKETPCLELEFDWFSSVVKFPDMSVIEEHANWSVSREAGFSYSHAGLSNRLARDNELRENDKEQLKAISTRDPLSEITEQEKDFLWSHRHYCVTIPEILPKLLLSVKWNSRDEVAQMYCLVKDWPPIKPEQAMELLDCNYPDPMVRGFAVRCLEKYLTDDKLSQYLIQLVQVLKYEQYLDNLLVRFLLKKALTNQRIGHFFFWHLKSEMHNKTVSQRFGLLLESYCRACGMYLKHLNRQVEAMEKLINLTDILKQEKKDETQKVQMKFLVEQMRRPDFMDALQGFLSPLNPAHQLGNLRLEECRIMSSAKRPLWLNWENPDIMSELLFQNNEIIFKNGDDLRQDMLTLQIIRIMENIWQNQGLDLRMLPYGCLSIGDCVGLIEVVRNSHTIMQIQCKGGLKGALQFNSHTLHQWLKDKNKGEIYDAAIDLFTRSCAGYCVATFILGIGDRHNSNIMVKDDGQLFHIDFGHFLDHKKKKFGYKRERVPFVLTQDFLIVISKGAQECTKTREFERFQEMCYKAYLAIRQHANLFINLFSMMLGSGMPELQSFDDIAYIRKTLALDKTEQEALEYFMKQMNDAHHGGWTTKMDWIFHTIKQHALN
Sequence (P27986 whole entry partner): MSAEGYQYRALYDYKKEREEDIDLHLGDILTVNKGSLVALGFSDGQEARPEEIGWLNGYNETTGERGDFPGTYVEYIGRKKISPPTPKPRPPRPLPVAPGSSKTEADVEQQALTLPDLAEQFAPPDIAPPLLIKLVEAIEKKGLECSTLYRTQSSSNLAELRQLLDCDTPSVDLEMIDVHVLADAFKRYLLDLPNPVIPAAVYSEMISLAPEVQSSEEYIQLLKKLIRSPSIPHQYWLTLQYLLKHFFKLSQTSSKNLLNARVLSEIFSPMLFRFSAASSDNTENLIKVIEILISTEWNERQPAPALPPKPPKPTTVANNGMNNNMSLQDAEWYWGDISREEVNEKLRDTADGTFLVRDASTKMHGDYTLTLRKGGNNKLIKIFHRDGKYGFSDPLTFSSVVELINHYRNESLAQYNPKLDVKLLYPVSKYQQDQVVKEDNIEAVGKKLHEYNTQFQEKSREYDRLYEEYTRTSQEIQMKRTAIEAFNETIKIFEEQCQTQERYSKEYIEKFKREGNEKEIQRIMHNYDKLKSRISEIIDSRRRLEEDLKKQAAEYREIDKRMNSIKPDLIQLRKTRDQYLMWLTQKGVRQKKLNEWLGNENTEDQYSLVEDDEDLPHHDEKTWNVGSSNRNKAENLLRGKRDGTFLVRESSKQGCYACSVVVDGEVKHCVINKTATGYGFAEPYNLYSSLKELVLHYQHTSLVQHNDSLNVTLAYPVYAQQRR
Conditions: read-out: PI3Kα AlphaScreen ® Ki
QUANTITY: Ki (nM)
Give your result in nM as a bare value.

Some entries whose results are on file:
COc1ccc(Nc2ncc([C@@H](O)C(F)(F)F)cc2-c2nc(C)nc(N)n2)cn1    86
COc1ccc(Nc2ncc(-c3ccc(OC)nc3)cc2-c2nc(C)nc(N)n2)cn1    17
COc1ccc(Nc2ncc(CN3CCn4ncnc4C3)cc2-c2nc(C)nc(N)n2)cn1    41

Moving on to the next compound.
Enquiry: What value of measured Ki is listed for `CC(=O)Nc1ccc(Nc2ncc(Cl)cc2-c2nc(C)nc(N)n2)cc1F` ?
Return: 155

---

System: phosphorylation of Akt at Serine 473 in U87 MG cells
Assay: cells
Settings: Homo sapiens, U-87 MG, 2 h, read-out: U87Cell IC50, pAkt (Ser 473), U87 MG cells, two hours with compound
QUANTITY: pIC50
Keep in mind that pIC50 stands for -log10 of concentration in molar terms.

Some entries whose results are on file:
COc1ncc(Nc2ncc(C(C)(C)O)cc2-c2cc(N)nc(C)n2)cc1F    7.46
COc1ccc(Nc2ncc(C(=O)N3CCOCC3)cc2-c2nc(C)nc(N)n2)cn1    6.84
COc1ccc(Nc2ncc(CCO)cc2-c2nc(C)nc3[nH]cnc23)cn1    6.75
COc1ccc(Nc2ncc(N3CCC[C@H]3CO)cc2-c2nc(C)nc3[nH]cnc23)cn1    6.72
CC(=O)Nc1ccc(Nc2ncc(CN3CCN(S(C)(=O)=O)CC3)cc2-c2nc(C)nc(N)n2)cn1    6.49
COc1ncc(Nc2ncc([C@H](C)N3CCN(S(C)(=O)=O)C[C@@H]3C)cc2-c2nc(C)nc3[nH]cnc23)cc1F    7.29

Enquiry: What value of measured pIC50 is listed for `COc1ncc(Nc2nc(-c3cccnc3)ccc2-c2nc(C)nc(N)n2)cc1F` ?
Return: 7.43

Enquiry: What would you report for `COc1cnc(Nc2cnc(Cl)c(N)c2)c(-c2nc(C)nc(N)n2)c1` ?
Return: 6.93

Enquiry: What would you report for COc1ncc(Nc2ncc(C(C)N)cc2-c2nc(C)nc(N)n2)cc1F (centres unmarked) ?
Return: 6.84

---

Recorded POC (Percent of control) p38 alpha, one value per entry.
Target: ProfilerPro Kinase Selectivity Assay Kit kinases (Homo sapiens, UniProt Q16539)
Sequence (Q16539 2-360 limits assumed): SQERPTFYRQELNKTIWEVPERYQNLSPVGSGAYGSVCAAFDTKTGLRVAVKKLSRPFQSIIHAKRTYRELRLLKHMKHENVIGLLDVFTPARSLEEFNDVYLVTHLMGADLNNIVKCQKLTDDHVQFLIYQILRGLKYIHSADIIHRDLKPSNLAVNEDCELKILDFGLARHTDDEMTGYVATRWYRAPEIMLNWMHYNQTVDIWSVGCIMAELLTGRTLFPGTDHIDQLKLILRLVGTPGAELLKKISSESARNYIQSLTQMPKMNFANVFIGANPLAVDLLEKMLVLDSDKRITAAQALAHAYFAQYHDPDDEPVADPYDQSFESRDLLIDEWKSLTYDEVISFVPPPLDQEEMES
Format: biochemical
Conditions: p38 alpha; 1 μM compound concentration
Kindly report the value followed by its unit.

Some entries whose results are on file:
COc1ccc(Nc2ncccc2-c2nc(C)nc3[nH]cnc23)cn1 [Example 58]    98 POC
Cc1cnc(Nc2cccc3[nH]ccc23)c(-c2nc(C)nc(N)n2)c1 [Example 46]    96 POC
Cc1cnc(Nc2cccc3[nH]ncc23)c(-c2nc(C)nc(N)n2)c1 [Example 47]    91 POC
COc1ccc(Nc2ncc(CN3CCN(C(C)=O)CC3)cc2-c2nc(C)nc3[nH]cnc23)cn1 [Example 89]    100 POC

Enquiry: Requested read-out POC (Percent of control) p38 alpha, target or system ProfilerPro Kinase Selectivity Assay Kit kinases (Homo sapiens, UniProt Q16539), entry Cc1nc(N)nc(-c2cccnc2Nc2cccc3[nH]ccc23)n1 [Example 22]
Return: 101 POC
